Origin of the recorded values: paper PMC4466507

TEST TARGET: SVV-001 3C^pro (Seneca Valley virus)
Construct: made in house; host or cells: E. coli BL21 AI
Sequence (Q155Z9 1509-1719): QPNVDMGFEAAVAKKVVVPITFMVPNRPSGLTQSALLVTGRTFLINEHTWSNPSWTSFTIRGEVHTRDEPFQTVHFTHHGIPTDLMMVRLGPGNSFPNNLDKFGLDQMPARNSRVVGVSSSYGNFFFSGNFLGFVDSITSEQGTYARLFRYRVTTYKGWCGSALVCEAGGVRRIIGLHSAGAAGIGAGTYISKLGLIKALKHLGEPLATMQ
TEST DETAILS: FRET substrate cleavage assay with purified recombinant SVV-001 3C^pro
Type: biochemical, Seneca Valley Virus (SVV-001)
SETTINGS: kcat/KM relative to endogenous L/VP4 FRET substrate
Method: Reactions were performed in PBS, pH 7.4 and 200 nM FRET substrate in a total volume of 100 μL. Substrates were incubated with 250 nM SVV-001 3C^pro at 30°C for 3 h. […] Fluorescence emissions at 475 nm and 527 nm, corresponding to CyPet and YPet respectively, were followed after excitation at 433 nm every 180 s by a Safire fluorimeter (Tecan). […] FRET ratios (YPet fluorescence/CyPet fluorescence) were calculated at each timepoint. […]
Criterion: Relative to WT meeting or surpassing 5. Met: TRUE. Not met: FALSE.

Worked cases, answers included:
IVFELQGP [L/VP4.3, L/VP4.1 FRET substrate with P4 Y→F substitution]
TRUE
IVYELQGP [L/VP4.1, L/VP4 with Q↓GP (P2’ N→P substitution), FRET fusion protein substrate]
TRUE
YELQGP [L/VP4.6, P5/P6 truncation of L/VP4.1 FRET substrate]
FALSE

Please turn your attention to the following entry.
Hello, I need to know if IVMELQGP [L/VP4.4, L/VP4.1 FRET substrate with P4 Y→M substitution] has measured Relative to WT not below 5. Thanks! TRUE
